# System: CHEK1;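 note: KINOMEscan kinase panel screen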
# Conditions used: concentration: 1 μM,replicates: in singlicate; n = 1
Assay readout: %Inh (%)
Answer with a number only, understood to be in %.

Record excerpt, results attached:
Compound | Tested system | %Inh, %
Cl.c1ccc(Oc2ccc(Nc3ccnc4cc(-c5ccc(CN6CCNCC6)o5)ccc34)cc2)nc1 | CHEK1 | 5
C[C@@H]1CNc2c(sc3ccc4nc(-c5ccc(O)cc5)ccc4c23)C(=O)N1 | CHEK1 | 0

## Task Provide only the value of recorded %Inh for `COc1cc2c(Nc3ccc(NC(=O)c4ccccc4)cc3)ncnc2cc1OCCCN1CCOCC1`
## Result 0

## Task Note %Inh for the compound shown: `Cn1ccc2ncnc(Oc3ccc(NC(=O)Nc4cccc(C(F)(F)F)c4)c(F)c3)c21`
## Result 0

## Task In one line, give reported %Inh of the entry `Cn1ccc2ncnc(Oc3ccc(NC(=O)Nc4cncc(C(F)(F)F)c4)c(Cl)c3)c21` .
## Result 0

## Task In one line, give reported %Inh of the entry `Cc1cccc2c(-c3ccncc3)c(-c3ccc(F)cc3)nn12.Cl` .
## Result 0

## Task Give me measured %Inh, please, for this compound: COC(=O)c1cccc(NC(=O)NC2CCN(c3ccnc(Nc4cc(OC)c(OC)c(OC)c4)n3)C2)c1 (stereo not drawn)
## Result 0

## Task Return value of %Inh for input `Cc1ccc(CC(=O)N2CCc3cc(-c4cn(C)c5ncnc(N)c45)ccc32)cc1` , no commentary.
## Result 1

## Task Report measured %Inh; entry is `O=C(Nc1n[nH]c2cc(-c3ccco3)ccc12)C1CC1`
## Result 0

## Task Determine from records and report %Inh for `CCCC(=O)Nc1n[nH]c2ncccc12`
## Result 0

## Task Name the recorded %Inh of the item COc1ccc(Nc2nccc(N3CCC(NC(=O)c4cccc(C#N)c4)C3)n2)cc1 (stereo not drawn) in your answer.
## Result 0

## Task Item `CNC(=O)c1ccccc1Nc1nc(Nc2cccc(CS(C)(=O)=O)c2)ncc1C.O=CO` : provide %Inh
## Result 16

## Task Name the recorded %Inh of the compound listed here: `Cn1ccc2ncnc(Oc3ccc(NC(=O)Nc4cccc(C(F)(F)F)c4)c(Cl)c3)c21`
## Result 0

## Task Please report the measured %Inh for `O=C(Nc1ccccc1)c1cccc(Oc2ccc3nccn3n2)c1`
## Result 0

## Task For the compound N#Cc1cccc(C(=O)NC2CCN(c3ccnc(Nc4ccc(F)cc4)n3)C2)c1 (stereo not drawn) , report %Inh.
## Result 0
